selectivity ratio: recorded values
Test system: CCR5
Assay: Selectivity index, ratio of CC50 for human TZM-bl cells to EC50 for CCR5 in human TZM-bl cells infected with CCR5-tropic HIV-1 Bal assessed as inhibition of viral entry
Type: toxicity, cell-based
Details: read-out: Ratio CC50/EC50
measured parameter: selectivity ratio

> print(dat)
                         compound.structure  measured.parameter  endpoint.result
1  O=C(/C=C/c1ccc(O)c(O)c1)CCc1ccc(NC(=O)Cc2cccs2)cc1   selectivity ratio              < 2
2  CC(=O)Oc1ccc(/C=C/C(=O)CCc2ccc(NC(=O)C3CCCCC3)cc2)cc1OC(C)=O   selectivity ratio                5
3  CC(=O)Oc1ccc(CCC(=O)CCc2ccc(NC(=O)Cc3cccs3)cc2)cc1OC(C)=O   selectivity ratio               17
4  Cc1ccc(C(=O)Nc2ccc(CCC(=O)CCc3ccc(O)c(O)c3)cc2)cc1   selectivity ratio                5
5  O=C(CCc1ccc(NC(=O)C2CCCCC2)cc1)CCc1ccc(O)c(O)c1   selectivity ratio               10
6  Cc1ccc(C(=O)Nc2ccc(CCC(=O)/C=C/c3ccc(O)c(O)c3)cc2)cc1   selectivity ratio              < 1
7  CC(=O)Oc1ccc(CCC(=O)CCc2ccc(NC(=O)c3ccc(C)cc3)cc2)cc1OC(C)=O   selectivity ratio                9
8  CC(=O)Oc1ccc(CCC(=O)CCc2ccc(NC(=O)c3ccccc3)cc2)cc1OC(C)=O   selectivity ratio              110
9  CC(=O)Oc1ccc(/C=C/C(=O)CCc2ccc(NC(=O)c3ccc([N+](=O)[O-])cc3)cc2)cc1OC(C)=O   selectivity ratio                5

* * *

Assay: Binding affinity to HIV1 integrase by surface plasma resonance method
Parameters: species or system Human immunodeficiency virus
pKd: −log10 of the molar value.
Listing of entries alongside the reported pKd.
measured parameter: pKd

> print(dat)
                         compound.structure  endpoint.result
1  O=C(CCc1ccc(NC(=O)c2ccccc2)cc1)CCc1ccc(O)c(O)c1             3.96
2  O=C(/C=C/c1ccc(O)c(O)c1)CCc1ccc(NC(=O)C2CCCCC2)cc1             4.05
3  COc1ccc(C(=O)Nc2ccc(CCC(=O)/C=C/c3ccc(O)c(O)c3)cc2)cc1             4.36
4  O=C(/C=C/c1ccc(O)c(O)c1)CCc1ccc(NC(=O)c2ccccc2)cc1             3.79
5  O=C(CCc1ccc(NC(=O)C2CCCCC2)cc1)CCc1ccc(O)c(O)c1             4.09
6  O=C(/C=C/c1ccc(O)c(O)c1)CCc1ccc(NC(=O)Cc2cccs2)cc1             4.21
7  CC(=O)Oc1ccc(CCC(=O)CCc2ccc(NC(=O)c3ccccc3)cc2)cc1OC(C)=O             5.62

* * *

Test system: CCR5
Assay: Selectivity index, ratio of CC50 for human TZM-bl cells to EC50 for CCR5 in human TZM-bl cells infected with CCR5-tropic HIV-1 Bal assessed as inhibition of viral entry
Format: toxicity, cell-based
Settings: read-out: Ratio CC50/EC50
measured parameter: selectivity ratio

> print(dat)
                          compound.structure  system  comparative.sign  endpoint.result
 1  O=C(CCc1ccc(NC(=O)c2ccccc2)cc1)CCc1ccc(O)c(O)c1    CCR5                 =               26
 2  CC(=O)Oc1ccc(/C=C/C(=O)CCc2ccc(NC(=O)c3ccccc3)cc2)cc1OC(C)=O    CCR5                 <                5
 3  CC(=O)Oc1ccc(CCC(=O)CCc2ccc(NC(=O)C3CCCCC3)cc2)cc1OC(C)=O    CCR5                 =               14
 4  O=C(/C=C/c1ccc(O)c(O)c1)CCc1ccc(NC(=O)c2ccccc2)cc1    CCR5                 <                1
 5  COc1ccc(C(=O)Nc2ccc(CCC(=O)CCc3ccc(O)c(O)c3)cc2)cc1    CCR5                 <                5
 6  CC(=O)Oc1ccc(/C=C/C(=O)CCc2ccc(NC(=O)c3ccc(C)cc3)cc2)cc1OC(C)=O    CCR5                 =                2
 7  O=C(CCc1ccc(NC(=O)c2ccc([N+](=O)[O-])cc2)cc1)CCc1ccc(O)c(O)c1    CCR5                 =                6
 8  COc1ccc(C(=O)Nc2ccc(CCC(=O)/C=C/c3ccc(OC(C)=O)c(OC(C)=O)c3)cc2)cc1    CCR5                 =               12
 9  COc1ccc(C(=O)Nc2ccc(CCC(=O)/C=C/c3ccc(O)c(O)c3)cc2)cc1    CCR5                 =                7
10  Cc1nnc(C(C)C)n1[C@@H]1C[C@H]2CC[C@@H](C1)N2CC[C@H](NC(=O)C1CCC(F)(F)CC1)c1ccccc1    CCR5                 >            1e+06
11  O=C(/C=C/c1ccc(O)c(O)c1)CCc1ccc(NC(=O)c2ccc([N+](=O)[O-])cc2)cc1    CCR5                 <                1
12  O=C(CCc1ccc(NC(=O)Cc2cccs2)cc1)CCc1ccc(O)c(O)c1    CCR5                 =                8
13  COc1ccc(C(=O)Nc2ccc(CCC(=O)CCc3ccc(OC(C)=O)c(OC(C)=O)c3)cc2)cc1    CCR5                 =               21
14  CC(=O)Oc1ccc(/C=C/C(=O)CCc2ccc(NC(=O)Cc3cccs3)cc2)cc1OC(C)=O    CCR5                 <                1
15  O=C(/C=C/c1ccc(O)c(O)c1)CCc1ccc(NC(=O)C2CCCCC2)cc1    CCR5                 <                3
16  CC(=O)Oc1ccc(CCC(=O)CCc2ccc(NC(=O)c3ccc([N+](=O)[O-])cc3)cc2)cc1OC(C)=O    CCR5                 =               15
